assay: in vivo; conditions: rat, oral, male Hann.-Wistar rats, 14 days observation, probit analysis
measurement.kind: LD50 at 336 h
Answer with the figure and its unit, nothing else.

Prompt: Reported LD50 at 336 h for CCC(O)(c1cccc(C(F)(F)F)c1)c1ccc(O)cc1O (stereo not shown) : what is it?
Response: 1250 mg/kg
